- Test system: Plasmodium falciparum
- assay.text: Antiplasmodial activity against chloroquine and pyrimethamine resistant Plasmodium falciparum K1 assessed as reduction in [3H]-hypoxanthine incorporation incubated for 48 hrs by liquid scintillation counting method
- Assay type: functional, organism-based
readout: pIC50
For clarity, pIC50 is expressed as the negative log10 of concentration in mol/L.

Lookup result for C[C@H]1[C@H](OC(=O)CCC(=O)NCCCN(CCCCCCCCCCN(CCCNC(=O)CCC(=O)O[C@@H]2O[C@@H]3O[C@@]4(C)CC[C@H]5[C@H](C)CC[C@@H]([C@H]2C)[C@@]35OO4)C(=O)OC(C)(C)C)C(=O)OC(C)(C)C)O[C@@H]2O[C@@]3(C)CC[C@H]4[C@H](C)CC[C@@H]1[C@@]24OO3 ; measured pIC50: 9.10

New cases:
Lookup result for C[C@H]1[C@H](OC(=O)CCC(=O)NCCCN(CCCCCCCN(CCCNC(=O)CCC(=O)O[C@@H]2O[C@@H]3O[C@@]4(C)CC[C@H]5[C@H](C)CC[C@@H]([C@H]2C)[C@@]35OO4)C(=O)CCC(=O)O[C@@H]2O[C@@H]3O[C@@]4(C)CC[C@H]5[C@H](C)CC[C@@H]([C@H]2C)[C@@]35OO4)C(=O)CCC(=O)O[C@@H]2O[C@@H]3O[C@@]4(C)CC[C@H]5[C@H](C)CC[C@@H]([C@H]2C)[C@@]35OO4)O[C@@H]2O[C@@]3(C)CC[C@H]4[C@H](C)CC[C@@H]1[C@@]24OO3 ; measured pIC50: 9.22

Lookup result for C[C@H]1[C@H](OC(=O)CCC(=O)NCCCN(CCCCCCCCCCN(CCCNC(=O)CCC(=O)O[C@@H]2O[C@@H]3O[C@@]4(C)CC[C@H]5[C@H](C)CC[C@@H]([C@H]2C)[C@@]35OO4)C(=O)CCC(=O)O[C@@H]2O[C@@H]3O[C@@]4(C)CC[C@H]5[C@H](C)CC[C@@H]([C@H]2C)[C@@]35OO4)C(=O)CCC(=O)O[C@@H]2O[C@@H]3O[C@@]4(C)CC[C@H]5[C@H](C)CC[C@@H]([C@H]2C)[C@@]35OO4)O[C@@H]2O[C@@]3(C)CC[C@H]4[C@H](C)CC[C@@H]1[C@@]24OO3 ; measured pIC50: 8.96

====

- assay.text: Selectivity index, ratio of IC50 for rat L6 cells to IC50 for chloroquine and pyrimethamine resistant Plasmodium falciparum K1
- Format: toxicity
- measurement.context: L6 cells versus Plasmodium falciparum K1, read-out: Ratio IC50
readout: selectivity ratio
// response body must contain only the number

Lookup result for C[C@H]1[C@H](OC(=O)CCC(=O)NCCCN(CCCCCCCN(CCCNC(=O)CCC(=O)O[C@@H]2O[C@@H]3O[C@@]4(C)CC[C@H]5[C@H](C)CC[C@@H]([C@H]2C)[C@@]35OO4)C(=O)OC(C)(C)C)C(=O)OC(C)(C)C)O[C@@H]2O[C@@]3(C)CC[C@H]4[C@H](C)CC[C@@H]1[C@@]24OO3 ; measured selectivity ratio: 1210

Lookup result for C[C@H]1[C@H](OC(=O)CCC(=O)NCCCN(CCCCCCN(CCCNC(=O)CCC(=O)O[C@@H]2O[C@@H]3O[C@@]4(C)CC[C@H]5[C@H](C)CC[C@@H]([C@H]2C)[C@@]35OO4)C(=O)OC(C)(C)C)C(=O)OC(C)(C)C)O[C@@H]2O[C@@]3(C)CC[C@H]4[C@H](C)CC[C@@H]1[C@@]24OO3 ; measured selectivity ratio: 733

Lookup result for CC(C)(C)OC(=O)N(CCCCCCCCCCN(CCCNC(=O)C1CCC2(CC1)OOC1(O2)C2CC3CC(C2)CC1C3)C(=O)OC(C)(C)C)CCCNC(=O)C1CCC2(CC1)OOC1(O2)C2CC3CC(C2)CC1C3 (stereo not given) ; measured selectivity ratio: 1180

Query compound follows.
Lookup result for C[C@H]1[C@H](OC(=O)CCC(=O)NCCCN(CCCCCCCCN(CCCNC(=O)CCC(=O)O[C@@H]2O[C@@H]3O[C@@]4(C)CC[C@H]5[C@H](C)CC[C@@H]([C@H]2C)[C@@]35OO4)C(=O)OC(C)(C)C)C(=O)OC(C)(C)C)O[C@@H]2O[C@@]3(C)CC[C@H]4[C@H](C)CC[C@@H]1[C@@]24OO3 ; measured selectivity ratio: 700

====

Listing of recorded selectivity ratio by entry.
- assay.text: Selectivity index, ratio of IC50 for rat L6 cells to IC50 for chloroquine and pyrimethamine resistant Plasmodium falciparum K1
- Assay type: toxicity
- measurement.context: L6 cells versus Plasmodium falciparum K1, read-out: Ratio IC50

These recorded examples may help you get a feel for the data.
Lookup result for O=C(NCCCN(CCCCCCCN(CCCNC(=O)C1CCC2(CC1)OOC1(O2)C2CC3CC(C2)CC1C3)C(=O)C1CCC2(CC1)OOC1(O2)C2CC3CC(C2)CC1C3)C(=O)C1CCC2(CC1)OOC1(O2)C2CC3CC(C2)CC1C3)C1CCC2(CC1)OOC1(O2)C2CC3CC(C2)CC1C3 (stereo not drawn) ; measured selectivity ratio: > 934

Lookup result for CC(C)(C)OC(=O)N(CCCCCCN(CCCNC(=O)C1CCC2(CC1)OOC1(O2)C2CC3CC(C2)CC1C3)C(=O)OC(C)(C)C)CCCNC(=O)C1CCC2(CC1)OOC1(O2)C2CC3CC(C2)CC1C3 (stereo not drawn) ; measured selectivity ratio: 10800

Query molecule follows.
Lookup result for C[C@H]1[C@H](OC(=O)CCC(=O)NCCCN(CCCCCCCN(CCCNC(=O)CCC(=O)O[C@@H]2O[C@@H]3O[C@@]4(C)CC[C@H]5[C@H](C)CC[C@@H]([C@H]2C)[C@@]35OO4)C(=O)CCC(=O)O[C@@H]2O[C@@H]3O[C@@]4(C)CC[C@H]5[C@H](C)CC[C@@H]([C@H]2C)[C@@]35OO4)C(=O)CCC(=O)O[C@@H]2O[C@@H]3O[C@@]4(C)CC[C@H]5[C@H](C)CC[C@@H]([C@H]2C)[C@@]35OO4)O[C@@H]2O[C@@]3(C)CC[C@H]4[C@H](C)CC[C@@H]1[C@@]24OO3 ; measured selectivity ratio: 2070

====

- assay.text: Selectivity index, ratio of IC50 for rat L6 cells to IC50 for chloroquine and pyrimethamine resistant Plasmodium falciparum K1
- Type: toxicity
- measurement.context: L6 cells versus Plasmodium falciparum K1, read-out: Ratio IC50
readout: selectivity ratio

Lookup result for C[C@H]1[C@H](OC(=O)CCC(=O)NCCCN(CCCCCCN(CCCNC(=O)CCC(=O)O[C@@H]2O[C@@H]3O[C@@]4(C)CC[C@H]5[C@H](C)CC[C@@H]([C@H]2C)[C@@]35OO4)C(=O)CCC(=O)O[C@@H]2O[C@@H]3O[C@@]4(C)CC[C@H]5[C@H](C)CC[C@@H]([C@H]2C)[C@@]35OO4)C(=O)CCC(=O)O[C@@H]2O[C@@H]3O[C@@]4(C)CC[C@H]5[C@H](C)CC[C@@H]([C@H]2C)[C@@]35OO4)O[C@@H]2O[C@@]3(C)CC[C@H]4[C@H](C)CC[C@@H]1[C@@]24OO3 ; measured selectivity ratio: 1470

====

- assay.text: Selectivity index, ratio of IC50 for rat L6 cells to IC50 for chloroquine and pyrimethamine resistant Plasmodium falciparum K1
- Assay type: toxicity
- measurement.context: L6 cells versus Plasmodium falciparum K1, read-out: Ratio IC50
Listing of recorded selectivity ratio by entry.
// response body must contain only the number

Lookup result for C[C@H]1[C@H](OC(=O)CCC(=O)NCCCN(CCCCCCCCCCN(CCCNC(=O)CCC(=O)O[C@@H]2O[C@@H]3O[C@@]4(C)CC[C@H]5[C@H](C)CC[C@@H]([C@H]2C)[C@@]35OO4)C(=O)CCC(=O)O[C@@H]2O[C@@H]3O[C@@]4(C)CC[C@H]5[C@H](C)CC[C@@H]([C@H]2C)[C@@]35OO4)C(=O)CCC(=O)O[C@@H]2O[C@@H]3O[C@@]4(C)CC[C@H]5[C@H](C)CC[C@@H]([C@H]2C)[C@@]35OO4)O[C@@H]2O[C@@]3(C)CC[C@H]4[C@H](C)CC[C@@H]1[C@@]24OO3 ; measured selectivity ratio: 445

Lookup result for O=C(O)C1CCC2(CC1)OOC1(O2)C2CC3CC(C2)CC1C3 (stereo not drawn) ; measured selectivity ratio: 49600

Lookup result for CC(C)(C)OC(=O)N(CCCCCCCCN(CCCNC(=O)C1CCC2(CC1)OOC1(O2)C2CC3CC(C2)CC1C3)C(=O)OC(C)(C)C)CCCNC(=O)C1CCC2(CC1)OOC1(O2)C2CC3CC(C2)CC1C3 (stereo not drawn) ; measured selectivity ratio: 976

Lookup result for C[C@H]1[C@H](OC(=O)CCC(=O)NCCCN(CCCCCCCCCCN(CCCNC(=O)CCC(=O)O[C@@H]2O[C@@H]3O[C@@]4(C)CC[C@H]5[C@H](C)CC[C@@H]([C@H]2C)[C@@]35OO4)C(=O)OC(C)(C)C)C(=O)OC(C)(C)C)O[C@@H]2O[C@@]3(C)CC[C@H]4[C@H](C)CC[C@@H]1[C@@]24OO3 ; measured selectivity ratio: 625

Lookup result for O=C(NCCCN(CCCCN(CCCNC(=O)C1CCC2(CC1)OOC1(O2)C2CC3CC(C2)CC1C3)C(=O)C1CCC2(CC1)OOC1(O2)C2CC3CC(C2)CC1C3)C(=O)C1CCC2(CC1)OOC1(O2)C2CC3CC(C2)CC1C3)C1CCC2(CC1)OOC1(O2)C2CC3CC(C2)CC1C3 (stereo not drawn) ; measured selectivity ratio: 8130

New cases:
Lookup result for CC(C)(C)OC(=O)N(CCCCN(CCCNC(=O)C1CCC2(CC1)OOC1(O2)C2CC3CC(C2)CC1C3)C(=O)OC(C)(C)C)CCCNC(=O)C1CCC2(CC1)OOC1(O2)C2CC3CC(C2)CC1C3 (stereo not drawn) ; measured selectivity ratio: 7160

Lookup result for O=C(NCCCN(CCCCCCN(CCCNC(=O)C1CCC2(CC1)OOC1(O2)C2CC3CC(C2)CC1C3)C(=O)C1CCC2(CC1)OOC1(O2)C2CC3CC(C2)CC1C3)C(=O)C1CCC2(CC1)OOC1(O2)C2CC3CC(C2)CC1C3)C1CCC2(CC1)OOC1(O2)C2CC3CC(C2)CC1C3 (stereo not drawn) ; measured selectivity ratio: 5740
